# Tested on: 947758-054-R-J2-PDC spheroid growth, percent test/control
# assay details: Anticancer human tumor 947758-054-R-J2-PDC patient-derived colon adenocarcinoma cell line growth inhibition [CLK]
# recorded conditions: second compound 10 µM; first compound 0.0316 µM; stronger effect = lower value; spheroids with HUVEC and MSC
measured attribute: viability, T/C (%)
Report the value in % with no unit label.

molecule	viability, T/C, %
O=C(c1cc(Cc2n[nH]c(=O)c3ccccc23)ccc1F)N1CCN(C(=O)C2CC2)CC1 + CN1CCN(c2cc(C(=O)Nc3cc4cc(-c5cnn(C)c5)ccc4cn3)ccn2)CC1	0.31
O=c1[nH]cc(F)c(=O)[nH]1 + CNC(=O)c1ccc(Nc2nc(OC3CCCC3)c3c(-c4ccc5nc(C)oc5c4)c[nH]c3n2)c(OC)c1	36.2
COc1ccc([C@@H](O)c2cc(-c3ncnc4cc(N5CCOCC5)ccc34)c(F)cc2Cl)nn1 + CNC(=O)c1ccc(Nc2nc(OC3CCCC3)c3c(-c4ccc5nc(C)oc5c4)c[nH]c3n2)c(OC)c1	30.4
C=C(F)C(=O)N1CCN(c2nc(OCC3CCCN3C)nc3c2CCN(c2cccc4cccc(Cl)c24)C3)CC1CC#N (stereo not given) + CNC(=O)c1ccc(Nc2nc(OC3CCCC3)c3c(-c4ccc5nc(C)oc5c4)c[nH]c3n2)c(OC)c1	29.4

What value of viability, T/C has been reported for the following molecule? C#Cc1c(F)ccc2cc(O)cc(-c3ncc4c(N5CC6CCC(C5)N6)nc(OCC56CCCN5CC(F)C6)nc4c3F)c12 (stereo not given) + CN1CCN(c2cc(C(=O)Nc3cc4cc(-c5cnn(C)c5)ccc4cn3)ccn2)CC1 0.38

Item CC1COCCN1c1cc(C2(S(C)(=N)=O)CC2)nc(-c2ccnc3[nH]ccc23)n1 (stereo not given) + CN1CCN(c2cc(C(=O)Nc3cc4cc(-c5cnn(C)c5)ccc4cn3)ccn2)CC1 has what recorded viability, T/C? 1.2

Return reported viability, T/C; argument: CC1(C)CCC(CN2CCN(c3ccc(C(=O)NS(=O)(=O)c4ccc(NCC5CCOCC5)c([N+](=O)[O-])c4)c(Oc4cnc5[nH]ccc5c4)c3)CC2)=C(c2ccc(Cl)cc2)C1 + CNC(=O)c1ccc(Nc2nc(OC3CCCC3)c3c(-c4ccc5nc(C)oc5c4)c[nH]c3n2)c(OC)c1 55

Which value of viability, T/C has been reported for Cn1ncnc1[C@H]1c2n[nH]c(=O)c3cc(F)cc(c23)N[C@@H]1c1ccc(F)cc1 + CNC(=O)c1ccc(Nc2nc(OC3CCCC3)c3c(-c4ccc5nc(C)oc5c4)c[nH]c3n2)c(OC)c1 in the records? 28.9

Item under review: COc1c(OCCCN2CCOCC2)ccc2c3n(c(=NC(=O)c4cnc(N)nc4)nc12)CCN3 + CNC(=O)c1ccc(Nc2nc(OC3CCCC3)c3c(-c4ccc5nc(C)oc5c4)c[nH]c3n2)c(OC)c1 . Reported viability, T/C? 8.44

What does the data say about its viability, T/C? Entry: COc1ccc([C@@H](O)c2cc(-c3ncnc4cc(N5CCOCC5)ccc34)c(F)cc2Cl)nn1 + CN1CCN(c2cc(C(=O)Nc3cc4cc(-c5cnn(C)c5)ccc4cn3)ccn2)CC1 0.26

###

# Test system: 947758-054-R-J2-PDC spheroid growth, percent test/control
# assay details: Anticancer human tumor 947758-054-R-J2-PDC cell line growth inhibition [CLK]; active = viability on the fitted dose curve at most 10% of control; inactive = the rest;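 further: spheroids exposed to compounds for one week before readout; 100% = DMSO vehicle control wells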
# recorded conditions: second compound 10 µM; first compound 1 µM; spheroids with HUVEC and MSC
The reply should be one of these categories: Yes (active), No (inactive)

Consider the following illustrative entries.
compound	discrete label
CC(Nc1ccc2c(c1)OCCn1cc(N3C(=O)OCC3C(F)F)nc1-2)C(N)=O (stereo not given) + CN1CCN(c2cc(C(=O)Nc3cc4cc(-c5cnn(C)c5)ccc4cn3)ccn2)CC1	Yes
COc1cccc2c1C(=O)c1c(O)c3c(c(O)c1C2=O)CC(O)(C(=O)CO)CC3OC1CC(N)C(O)C(C)O1 (stereo not given) + CNC(=O)c1ccc(Nc2nc(OC3CCCC3)c3c(-c4ccc5nc(C)oc5c4)c[nH]c3n2)c(OC)c1	Yes
Nc1ccn(C2OC(CO)C(O)C2(F)F)c(=O)n1 (stereo not given) + CNC(=O)c1ccc(Nc2nc(OC3CCCC3)c3c(-c4ccc5nc(C)oc5c4)c[nH]c3n2)c(OC)c1	Yes
CC1(C)CCC(CN2CCN(c3ccc(C(=O)NS(=O)(=O)c4ccc(NCC5CCOCC5)c([N+](=O)[O-])c4)c(Oc4cnc5[nH]ccc5c4)c3)CC2)=C(c2ccc(Cl)cc2)C1 + CNC(=O)c1ccc(Nc2nc(OC3CCCC3)c3c(-c4ccc5nc(C)oc5c4)c[nH]c3n2)c(OC)c1	No
CCCS(=O)(=O)Nc1ccc(F)c(C(=O)c2c[nH]c3ncc(-c4ccc(Cl)cc4)cc23)c1F + CNC(=O)c1ccc(Nc2nc(OC3CCCC3)c3c(-c4ccc5nc(C)oc5c4)c[nH]c3n2)c(OC)c1	No
O=C(c1cc(Cc2n[nH]c(=O)c3ccccc23)ccc1F)N1CCN(C(=O)C2CC2)CC1 + CN1CCN(c2cc(C(=O)Nc3cc4cc(-c5cnn(C)c5)ccc4cn3)ccn2)CC1	Yes
Nc1ccccc1NC(=O)c1ccc(CNC(=O)OCc2cccnc2)cc1 + CNC(=O)c1ccc(Nc2nc(OC3CCCC3)c3c(-c4ccc5nc(C)oc5c4)c[nH]c3n2)c(OC)c1	No
Nc1ccn(C2OC(CO)C(O)C2(F)F)c(=O)n1 (stereo not given) + CN1CCN(c2cc(C(=O)Nc3cc4cc(-c5cnn(C)c5)ccc4cn3)ccn2)CC1	Yes
C=C(F)C(=O)N1CCN(c2nc(OCC3CCCN3C)nc3c2CCN(c2cccc4cccc(Cl)c24)C3)CC1CC#N (stereo not given) + CNC(=O)c1ccc(Nc2nc(OC3CCCC3)c3c(-c4ccc5nc(C)oc5c4)c[nH]c3n2)c(OC)c1	No

Write down the call the test reported for this compound. Item: CC(CO)NC(=O)c1cc(-c2ccc(Cl)cc2)nn(-c2cnn(C)c2)c1=O (stereo not given) + CNC(=O)c1ccc(Nc2nc(OC3CCCC3)c3c(-c4ccc5nc(C)oc5c4)c[nH]c3n2)c(OC)c1 No
